# tested system: DRB4*0101 (Homo sapiens, UniProt P01903+P13762, G164S)
# method summary: biochemical
# Format: binding

{"molecule": "CC[C@H](C)[C@H](NC(=O)CNC(=O)[C@@H](NC(=O)[C@H](CCCCN)NC(=O)[C@H](CCC(=O)O)NC(=O)[C@H](CC(N)=O)NC(=O)CNC(=O)[C@H](C)N)[C@@H](C)O)C(=O)N[C@@H](CC(C)C)C(=O)N[C@H](C(=O)N[C@H](C(=O)N[C@H](C(=O)N[C@@H](Cc1ccc(O)cc1)C(=O)N[C@@H](Cc1c[nH]cn1)C(=O)N[C@@H](CO)C(=O)O)[C@@H](C)O)C(C)C)[C@@H](C)O [Peptide 1601.18]", "unit annotation": "nM", "IC50": 932}
{"molecule": "CC[C@H](C)[C@H](NC(=O)[C@H](Cc1c[nH]cn1)NC(=O)[C@H](C)NC(=O)[C@H](Cc1ccc(O)cc1)NC(=O)[C@H](CC(C)C)NC(=O)[C@@H](NC(=O)[C@H](Cc1ccccc1)NC(=O)[C@@H]1CCCN1C(=O)[C@H](CCC(N)=O)NC(=O)[C@@H](NC(=O)[C@H](CC(C)C)NC(=O)[C@@H](NC(=O)[C@H](CCCCN)NC(=O)[C@@H](N)Cc1ccccc1)[C@@H](C)O)[C@@H](C)CC)[C@@H](C)CC)C(=O)N[C@@H](CCC(N)=O)C(=O)O [Peptide 89.0025]", "unit annotation": "nM", "IC50": 9.6}
{"molecule": "CC[C@H](C)[C@H](NC(=O)[C@H](C)NC(=O)[C@H](CCCCN)NC(=O)[C@@H](N)Cc1c[nH]cn1)C(=O)N[C@@H](CCC(=O)O)C(=O)N[C@@H](CC(C)C)C(=O)N[C@@H](CCC(N)=O)C(=O)N[C@@H](CCSC)C(=O)N[C@@H](C)C(=O)N[C@@H](CC(C)C)C(=O)N[C@@H](CCC(N)=O)C(=O)NCC(=O)N[C@@H](CC(C)C)C(=O)N[C@@H](C)C(=O)N[C@@H](CCC(N)=O)C(=O)O [Peptide 89.0160]", "unit annotation": "nM", "IC50": 3470}
